B1: ZNF449 (parent)
chain: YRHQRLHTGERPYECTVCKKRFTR

- Variants of: B1
- testDetails: protein stability index of a GFP-peptide fusion (GPS, HEK-293T) (PSI 1-6); higher = more stable;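 note: lentivirally expressed fusions sorted by FACS into six bins by GFP to DsRed ratio, PSI derived from sequencing read proportions per bin multiplied by bin number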
- reportedConditions: c terminus: a fixed tail appended
valueType: protein stability index
Answer with a bare number; do not write a unit.

Past entries and their recorded results:
Q4Y    1.78
R5C    3.51
R11C    3.21

Which protein stability index is reported for this variant? T16E 2.25

Looking for the measured protein stability index of R5S , can you help? 2.24

Item under review: F22G . Reported protein stability index? 2.27

Fill blank: measured protein stability index of the variant R21A is ____. 2.06
